# measurement notes: Solid stability of compositions 1-11 and compounds 1A-11A: main component content over time under different conditions (Example 37, Table 32)
# Format: physicochemical
# condition details: 5 ± 3° C., 10 d
# Protocol: Compositions 1-11 and compounds 1A-11A were placed at environments of −25° C., 5±3° C., 25±2° C./60±5% RH, 40±2° C./75±5% RH, 60° C. for 0 d, 5 d and 10 d (d refers to day), respectively, and changes of the main component content (the main component content of 0 day was converted to 100%) were measured, the results are shown in Table 32.
readout kind: main component content (%)

[[record]]
molecule = "O=C([O-])C(CC1CCCCC1)N(CC(O)C(O)C(O)C(O)CO)C(=S)[S][Na].[Na+] (stereo not shown)"
numeric_value = 99.1

[[record]]
molecule = "O=C([O-])C(CF)N(CC(O)C(O)C(O)C(O)CO)C(=S)[S][Na].[Na+] (stereo not shown)"
numeric_value = 99.1

[[record]]
molecule = "CSCCC(C(=O)[O-])N(CC(O)C(O)C(O)C(O)CO)C(=S)[S][Na].[Na+] (stereo not shown)"
numeric_value = 96.5

[[record]]
molecule = "CC(C)C(C(=O)[O-])N(CC(O)C(O)C(O)C(O)CO)C(=S)[S][Na].[Na+] (stereo not shown)"
numeric_value = 98.1

[[record]]
molecule = "O=C([O-])C(Cc1cncs1)N(CC(O)C(O)C(O)C(O)CO)C(=S)[S][Na].[Na+] (stereo not shown)"
numeric_value = 96.0

[[record]]
molecule = "O=C([O-])C(Cc1cccs1)N(CC(O)C(O)C(O)C(O)CO)C(=S)[S][Na].[Na+] (stereo not shown)"
numeric_value = 96.2

[[record]]
molecule = "COc1ccc(CC(C(=O)[O-])N(CC(O)C(O)C(O)C(O)CO)C(=S)[S][Na])cc1.[Na+] (stereo not shown)"
numeric_value = 99.1

[[record]]
molecule = "O=C([O-])C(CO)N(CC(O)C(O)C(O)C(O)CO)C(=S)[S][K].[K+] (stereo not shown) [Compound 10A]"
numeric_value = 98.1

[[record]]
molecule = "O=C([O-])CCC(C(=O)[O-])N(CC(O)C(O)C(O)C(O)CO)C(=S)[S][Na].[Na+].[Na+] (stereo not shown)"
numeric_value = 98.7

[[record]]
molecule = "O=C([O-])C(CCSCO)N(CC(O)C(O)C(O)C(O)CO)C(=S)[S][Na].[Na+] (stereo not shown)"
numeric_value = 95.3


###

// reported main component content for each item listed
# measurement notes: Solid stability of compositions 1-11 and compounds 1A-11A: main component content over time under different conditions (Example 37, Table 32)
# Type: physicochemical
# condition details: 25 ± 2° C./60 ± 5% RH, 5 d
readout kind: main component content (%)

[[record]]
molecule = "O=C([O-])C(CCSCO)N(CC(O)C(O)C(O)C(O)CO)C(=S)[S][Na].[Na+] (stereo not shown)"
unit_name = "%"
numeric_value = 92.8

[[record]]
molecule = "O=C([O-])C(CC1CCCCC1)N(CC(O)C(O)C(O)C(O)CO)C(=S)[S][Na].[Na+] (stereo not shown)"
unit_name = "%"
numeric_value = 93.1

[[record]]
molecule = "O=C([O-])C(CF)N(CC(O)C(O)C(O)C(O)CO)C(=S)[S][Na].[Na+] (stereo not shown)"
unit_name = "%"
numeric_value = 97.3

[[record]]
molecule = "O=C([O-])C(CO)N(CC(O)C(O)C(O)C(O)CO)C(=S)[S][K].[K+] (stereo not shown) [Compound 10A]"
unit_name = "%"
numeric_value = 97.0


###

# measurement notes: Solid stability of compositions 1-11 and compounds 1A-11A: main component content over time under different conditions (Example 37, Table 32)
# Format: physicochemical
# condition details: 60° C., 5 d
// reported main component content for each item listed
readout kind: main component content (%)

[[record]]
compound = "O=C([O-])CCC(C(=O)[O-])N(CC(O)C(O)C(O)C(O)CO)C(=S)[S][Na].[Na+].[Na+] (stereo not shown)"
readout_kind = "main component content"
numeric_value = 80.3

[[record]]
compound = "O=C([O-])C(CCSCO)N(CC(O)C(O)C(O)C(O)CO)C(=S)[S][Na].[Na+] (stereo not shown)"
readout_kind = "main component content"
numeric_value = 68.0

[[record]]
compound = "O=C([O-])C(CO)N(CC(O)C(O)C(O)C(O)CO)C(=S)[S][K].[K+] (stereo not shown) [Compound 10A]"
readout_kind = "main component content"
numeric_value = 82.0

[[record]]
compound = "COc1ccc(CC(C(=O)[O-])N(CC(O)C(O)C(O)C(O)CO)C(=S)[S][Na])cc1.[Na+] (stereo not shown)"
readout_kind = "main component content"
numeric_value = 80.2

[[record]]
compound = "CSCCC(C(=O)[O-])N(CC(O)C(O)C(O)C(O)CO)C(=S)[S][Na].[Na+] (stereo not shown)"
readout_kind = "main component content"
numeric_value = 65.6

[[record]]
compound = "CC(C)C(C(=O)[O-])N(CC(O)C(O)C(O)C(O)CO)C(=S)[S][Na].[Na+] (stereo not shown)"
readout_kind = "main component content"
numeric_value = 49.9

[[record]]
compound = "O=C([O-])C(CC1CCCCC1)N(CC(O)C(O)C(O)C(O)CO)C(=S)[S][Na].[Na+] (stereo not shown)"
readout_kind = "main component content"
numeric_value = 60.4

[[record]]
compound = "O=C([O-])C(Cc1cccs1)N(CC(O)C(O)C(O)C(O)CO)C(=S)[S][Na].[Na+] (stereo not shown)"
readout_kind = "main component content"
numeric_value = 80.4

[[record]]
compound = "O=C([O-])C(Cc1cncs1)N(CC(O)C(O)C(O)C(O)CO)C(=S)[S][Na].[Na+] (stereo not shown)"
readout_kind = "main component content"
numeric_value = 84.5

[[record]]
compound = "O=C([O-])C(CF)N(CC(O)C(O)C(O)C(O)CO)C(=S)[S][Na].[Na+] (stereo not shown)"
readout_kind = "main component content"
numeric_value = 59.4


###

# measurement notes: Solid stability of compositions 1-11 and compounds 1A-11A: main component content over time under different conditions (Example 37, Table 32)
# Type: physicochemical
# condition details: 5 ± 3° C., 5 d
// reported main component content for each item listed
readout kind: main component content (%)

[[record]]
compound = "COc1ccc(CC(C(=O)[O-])N(CC(O)C(O)C(O)C(O)CO)C(=S)[S][Na])cc1.[Na+] (stereo not shown)"
unit_name = "%"
numeric_value = 100.0

[[record]]
compound = "O=C([O-])C(CCSCO)N(CC(O)C(O)C(O)C(O)CO)C(=S)[S][Na].[Na+] (stereo not shown)"
unit_name = "%"
numeric_value = 97.6

[[record]]
compound = "CC(C)C(C(=O)[O-])N(CC(O)C(O)C(O)C(O)CO)C(=S)[S][Na].[Na+] (stereo not shown)"
unit_name = "%"
numeric_value = 99.5

[[record]]
compound = "O=C([O-])CCC(C(=O)[O-])N(CC(O)C(O)C(O)C(O)CO)C(=S)[S][Na].[Na+].[Na+] (stereo not shown)"
unit_name = "%"
numeric_value = 99.6

[[record]]
compound = "O=C([O-])C(CO)N(CC(O)C(O)C(O)C(O)CO)C(=S)[S][K].[K+] (stereo not shown) [Compound 10A]"
unit_name = "%"
numeric_value = 99.5

[[record]]
compound = "O=C([O-])C(CF)N(CC(O)C(O)C(O)C(O)CO)C(=S)[S][Na].[Na+] (stereo not shown)"
unit_name = "%"
numeric_value = 99.5

[[record]]
compound = "CSCCC(C(=O)[O-])N(CC(O)C(O)C(O)C(O)CO)C(=S)[S][Na].[Na+] (stereo not shown)"
unit_name = "%"
numeric_value = 97.3

[[record]]
compound = "O=C([O-])C(Cc1cccs1)N(CC(O)C(O)C(O)C(O)CO)C(=S)[S][Na].[Na+] (stereo not shown)"
unit_name = "%"
numeric_value = 97.9

[[record]]
compound = "O=C([O-])C(Cc1cncs1)N(CC(O)C(O)C(O)C(O)CO)C(=S)[S][Na].[Na+] (stereo not shown)"
unit_name = "%"
numeric_value = 97.2

[[record]]
compound = "O=C([O-])C(CC1CCCCC1)N(CC(O)C(O)C(O)C(O)CO)C(=S)[S][Na].[Na+] (stereo not shown)"
unit_name = "%"
numeric_value = 98.8


###

# measurement notes: Solid stability of compositions 1-11 and compounds 1A-11A: main component content over time under different conditions (Example 37, Table 32)
# Format: physicochemical
# condition details: 25 ± 2° C./60 ± 5% RH, 10 d
readout kind: main component content (%)

[[record]]
compound = "CC(C)C(C(=O)[O-])N(CC(O)C(O)C(O)C(O)CO)C(=S)[S][Na].[Na+] (stereo not shown) [Compound 2A]"
readout_kind = "main component content"
unit_name = "%"
numeric_value = 82.5

[[record]]
compound = "CSCCC(C(=O)[O-])N(CC(O)C(O)C(O)C(O)CO)C(=S)[S][Na].[Na+] (stereo not shown) [Composition D3]"
readout_kind = "main component content"
unit_name = "%"
numeric_value = 90.3

[[record]]
compound = "O=C([O-])C(Cc1cccs1)N(CC(O)C(O)C(O)C(O)CO)C(=S)[S][Na].[Na+] (stereo not shown) [Compound 8A]"
readout_kind = "main component content"
unit_name = "%"
numeric_value = 93.3

[[record]]
compound = "O=C([O-])C(CO)N(CC(O)C(O)C(O)C(O)CO)C(=S)[S][K].[K+] (stereo not shown) [Compound 10A]"
readout_kind = "main component content"
unit_name = "%"
numeric_value = 96.1

[[record]]
compound = "O=C([O-])C(CC1CCCCC1)N(CC(O)C(O)C(O)C(O)CO)C(=S)[S][Na].[Na+] (stereo not shown) [Compound 6A]"
readout_kind = "main component content"
unit_name = "%"
numeric_value = 85.3

[[record]]
compound = "COc1ccc(CC(C(=O)[O-])N(CC(O)C(O)C(O)C(O)CO)C(=S)[S][Na])cc1.[Na+] (stereo not shown) [Compound 7A]"
readout_kind = "main component content"
unit_name = "%"
numeric_value = 98.0

[[record]]
compound = "O=C([O-])C(CF)N(CC(O)C(O)C(O)C(O)CO)C(=S)[S][Na].[Na+] (stereo not shown) [Compound 1A]"
readout_kind = "main component content"
unit_name = "%"
numeric_value = 92.1

[[record]]
compound = "O=C([O-])C(CCSCO)N(CC(O)C(O)C(O)C(O)CO)C(=S)[S][Na].[Na+] (stereo not shown) [Compound 4A]"
readout_kind = "main component content"
unit_name = "%"
numeric_value = 91.7

[[record]]
compound = "O=C([O-])C(Cc1cncs1)N(CC(O)C(O)C(O)C(O)CO)C(=S)[S][Na].[Na+] (stereo not shown) [Compound 9A]"
readout_kind = "main component content"
unit_name = "%"
numeric_value = 96.0

[[record]]
compound = "O=C([O-])CCC(C(=O)[O-])N(CC(O)C(O)C(O)C(O)CO)C(=S)[S][Na].[Na+].[Na+] (stereo not shown) [Compound 5A]"
readout_kind = "main component content"
unit_name = "%"
numeric_value = 95.7

